target_or_test_system: T1, UNK ZnF1-6 (called full-length) (human, UniProt Q9C0B0 30-357)
T1 sequence: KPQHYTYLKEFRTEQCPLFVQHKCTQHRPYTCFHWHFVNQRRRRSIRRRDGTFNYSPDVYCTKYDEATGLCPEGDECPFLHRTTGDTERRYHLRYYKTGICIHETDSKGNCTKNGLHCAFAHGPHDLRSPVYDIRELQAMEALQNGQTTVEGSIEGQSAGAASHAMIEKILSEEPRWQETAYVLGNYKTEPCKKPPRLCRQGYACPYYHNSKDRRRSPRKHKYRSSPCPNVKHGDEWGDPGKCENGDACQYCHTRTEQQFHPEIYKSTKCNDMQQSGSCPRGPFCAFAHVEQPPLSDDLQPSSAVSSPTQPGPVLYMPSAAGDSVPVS
experiment_description: nsRBNS (natural sequence RNA bind-n-seq); RBNS binding buffer (assumed for nsRBNS): 25 mM Tris pH 7.5, 150 mM KCl, 3 mM MgCl2, 0.01% Triton X-100, 500 ug/ml BSA, 20 U/ml SUPERase-In, 4 C; UNK is unkempt and MSI1 is Musashi-1; names of the RNAs are library labels; protein concentration not given here; high values mean tight binding
In all, about 5,800 sequences were measured (“enrichment r”: median about 0.68, highest 2% from about 11 on). Shown is part of a subset that was picked to be rich in the highest values.
quantity_name: binding signal (enrichment R)
Report the value in enrichment R with no unit label.

Identify measured binding signal corresponding to chr16:5044585:5044836:-|CDS|ENSG00000153446|control|control|control (ssRNA) RNA: GGGAGUUCUACAGUCCGACGAUCGAGUAGCUGGGACUACAGGAGCGUGCCACCAUACCUGGCUAAUUUUUAUAUUUUUUUAGUAGAGACAGGGUUUCAUCAUGUUGCUCAUGCUGGUCUCGAACUCCUGAUCUCAAGAGAUCCCAACAGAGGAUUGAGCAUCA
2.13

Given chr3:120396629:120396730:-|3pUTR|ENSG00000163430|msi1|FALSE|unique (ssRNA) RNA: GGGAGUUCUACAGUCCGACGAUCGCCUUCAUUUCUAGGAGUGCUUUAAGAGAAACUGUAAAUGGUGCUCUGGGGCUGGAGGCUAGUAAGGAAACUGCAUCACGAUUGAAAGAGGAACAGACCCAAAUCUGAACCUCUUUUGAGCAACAGAGGAUUGAGCAUCA , respond with its binding signal.
0.489
